biological target: Tyrosine-protein phosphatase non-receptor type 2 (Homo sapiens) (UniProt P17706)
Sequence (P17706 whole entry, looked up): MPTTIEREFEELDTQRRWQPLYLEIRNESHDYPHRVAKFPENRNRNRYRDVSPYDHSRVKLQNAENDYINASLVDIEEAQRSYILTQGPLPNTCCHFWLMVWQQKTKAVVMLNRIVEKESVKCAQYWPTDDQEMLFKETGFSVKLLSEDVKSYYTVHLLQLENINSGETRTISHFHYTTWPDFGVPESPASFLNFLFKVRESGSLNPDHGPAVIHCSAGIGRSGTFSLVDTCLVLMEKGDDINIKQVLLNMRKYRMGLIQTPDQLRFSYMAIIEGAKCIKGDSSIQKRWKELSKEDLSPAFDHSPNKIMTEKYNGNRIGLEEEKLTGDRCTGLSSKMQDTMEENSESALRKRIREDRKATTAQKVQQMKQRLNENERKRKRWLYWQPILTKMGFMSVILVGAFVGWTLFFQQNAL
Readout type: pKi
API: returns pKi as number; meaning -log10 of concentration in mol/L.

Recorded pKi for O=C(O)C(=O)Nc1sc2c(c1C(=O)O)CCO[C@H]2COC1=NS(=O)(=O)c2ccccc21 with Tyrosine-protein phosphatase non-receptor type 2 (Homo sapiens) (UniProt P17706), please?
5.96

###

Assay read-out Ki; system under study: Receptor-type tyrosine-protein phosphatase F (Homo sapiens).
Sequence (P10586 whole entry): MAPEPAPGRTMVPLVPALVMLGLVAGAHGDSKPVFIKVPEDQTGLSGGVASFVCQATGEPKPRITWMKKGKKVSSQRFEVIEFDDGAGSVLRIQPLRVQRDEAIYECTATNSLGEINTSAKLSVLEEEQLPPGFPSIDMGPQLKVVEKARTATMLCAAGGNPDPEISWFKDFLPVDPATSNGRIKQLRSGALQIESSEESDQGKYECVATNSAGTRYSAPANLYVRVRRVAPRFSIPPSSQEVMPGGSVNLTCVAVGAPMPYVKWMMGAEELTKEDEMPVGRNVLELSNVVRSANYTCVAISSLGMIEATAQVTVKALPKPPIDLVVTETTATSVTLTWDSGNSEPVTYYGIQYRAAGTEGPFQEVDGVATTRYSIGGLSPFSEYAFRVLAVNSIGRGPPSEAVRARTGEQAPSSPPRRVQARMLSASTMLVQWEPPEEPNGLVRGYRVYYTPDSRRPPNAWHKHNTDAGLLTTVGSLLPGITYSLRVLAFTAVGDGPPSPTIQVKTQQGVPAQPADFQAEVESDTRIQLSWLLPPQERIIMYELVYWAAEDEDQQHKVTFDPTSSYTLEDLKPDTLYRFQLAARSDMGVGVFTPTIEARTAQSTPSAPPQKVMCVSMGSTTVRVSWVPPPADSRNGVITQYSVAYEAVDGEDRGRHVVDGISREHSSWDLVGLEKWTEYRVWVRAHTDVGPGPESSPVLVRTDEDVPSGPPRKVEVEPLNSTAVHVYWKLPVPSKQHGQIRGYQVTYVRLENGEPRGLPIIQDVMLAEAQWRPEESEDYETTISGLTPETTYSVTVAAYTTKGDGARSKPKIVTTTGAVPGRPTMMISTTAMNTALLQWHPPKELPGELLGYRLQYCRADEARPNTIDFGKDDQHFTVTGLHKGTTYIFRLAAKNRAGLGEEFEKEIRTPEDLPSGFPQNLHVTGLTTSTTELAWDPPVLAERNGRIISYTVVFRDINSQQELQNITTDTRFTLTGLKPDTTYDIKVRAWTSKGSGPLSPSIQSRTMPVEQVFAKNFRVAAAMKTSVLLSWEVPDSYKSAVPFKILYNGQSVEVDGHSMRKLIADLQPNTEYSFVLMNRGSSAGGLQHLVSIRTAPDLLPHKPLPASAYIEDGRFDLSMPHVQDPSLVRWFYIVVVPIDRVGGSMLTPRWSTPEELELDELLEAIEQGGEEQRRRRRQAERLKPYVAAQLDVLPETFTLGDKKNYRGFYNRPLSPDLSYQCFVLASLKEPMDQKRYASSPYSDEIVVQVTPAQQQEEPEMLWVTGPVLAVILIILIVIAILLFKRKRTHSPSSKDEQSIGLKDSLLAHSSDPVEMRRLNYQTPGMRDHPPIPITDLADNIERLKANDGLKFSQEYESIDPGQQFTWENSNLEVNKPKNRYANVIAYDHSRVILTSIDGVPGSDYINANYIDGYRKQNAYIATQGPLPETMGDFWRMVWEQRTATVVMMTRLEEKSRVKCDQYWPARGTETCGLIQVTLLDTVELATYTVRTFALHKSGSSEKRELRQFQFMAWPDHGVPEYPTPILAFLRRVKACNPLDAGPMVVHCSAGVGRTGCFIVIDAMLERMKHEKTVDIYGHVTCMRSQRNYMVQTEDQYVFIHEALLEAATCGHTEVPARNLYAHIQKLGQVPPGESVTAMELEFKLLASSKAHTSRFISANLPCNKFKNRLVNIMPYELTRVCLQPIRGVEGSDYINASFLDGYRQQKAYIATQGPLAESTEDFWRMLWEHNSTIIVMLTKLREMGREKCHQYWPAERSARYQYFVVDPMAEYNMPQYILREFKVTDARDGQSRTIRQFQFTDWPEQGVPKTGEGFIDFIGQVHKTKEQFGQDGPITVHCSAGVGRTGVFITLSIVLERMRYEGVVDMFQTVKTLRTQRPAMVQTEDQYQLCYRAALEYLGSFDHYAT

// known answers, use as guide
[[record]]
chemical_string = "O=C(O)C(=O)Nc1ccc2cc[nH]c2c1C(=O)O"
tested_system = "Receptor-type tyrosine-protein phosphatase F (Homo sapiens)"
result = "450 µM"

[[record]]
chemical_string = "CC1(C)CC(Nc2cccc(-c3sc(C(=O)O)c(OCC(=O)O)c3Br)c2)CC(C)(C)C1"
tested_system = "Receptor-type tyrosine-protein phosphatase F (Homo sapiens)"
result = "> 1000 µM"

[[record]]
chemical_string = "O=C(O)COc1c(C(=O)O)sc2c1sc1ccccc12"
tested_system = "Receptor-type tyrosine-protein phosphatase F (Homo sapiens)"
result = "1100 µM"


Please look at the following compound next.
Form field: reported Ki of O=C(O)C(=O)Nc1sc2c(c1C(=O)O)CCO[C@H]2COC1=NS(=O)(=O)c2ccccc21
176 µM

###

Assay read-out Ki; system under study: Tyrosine-protein phosphatase non-receptor type 2 (Homo sapiens).
Sequence (P17706 whole entry): as the sequence (P17706 whole entry, looked up) above
API: value field is a number in µM; no unit string.

[[record]]
chemical_string = "O=C(O)C(=O)Nc1ccc2cc[nH]c2c1C(=O)O"
numeric_readout = 8


Recorded Ki for O=C(O)COc1c(C(=O)O)sc2c1sc1ccccc12 with Tyrosine-protein phosphatase non-receptor type 2 (Homo sapiens), please?
9.2

Recorded Ki for O=C(O)C(=O)Nc1cc2ccccc2cc1C(O)O with Tyrosine-protein phosphatase non-receptor type 2 (Homo sapiens), please?
9.9

Recorded Ki for O=C(O)C(=O)Nc1sc2c(c1C(=O)O)CCO[C@H]2COC1=NS(=O)(=O)c2ccccc21 with Tyrosine-protein phosphatase non-receptor type 2 (Homo sapiens), please?
0.6

###

Assay read-out Ki; system under study: Receptor-type tyrosine-protein phosphatase alpha (Homo sapiens, UniProt P18433).
Sequence (P18433 whole entry): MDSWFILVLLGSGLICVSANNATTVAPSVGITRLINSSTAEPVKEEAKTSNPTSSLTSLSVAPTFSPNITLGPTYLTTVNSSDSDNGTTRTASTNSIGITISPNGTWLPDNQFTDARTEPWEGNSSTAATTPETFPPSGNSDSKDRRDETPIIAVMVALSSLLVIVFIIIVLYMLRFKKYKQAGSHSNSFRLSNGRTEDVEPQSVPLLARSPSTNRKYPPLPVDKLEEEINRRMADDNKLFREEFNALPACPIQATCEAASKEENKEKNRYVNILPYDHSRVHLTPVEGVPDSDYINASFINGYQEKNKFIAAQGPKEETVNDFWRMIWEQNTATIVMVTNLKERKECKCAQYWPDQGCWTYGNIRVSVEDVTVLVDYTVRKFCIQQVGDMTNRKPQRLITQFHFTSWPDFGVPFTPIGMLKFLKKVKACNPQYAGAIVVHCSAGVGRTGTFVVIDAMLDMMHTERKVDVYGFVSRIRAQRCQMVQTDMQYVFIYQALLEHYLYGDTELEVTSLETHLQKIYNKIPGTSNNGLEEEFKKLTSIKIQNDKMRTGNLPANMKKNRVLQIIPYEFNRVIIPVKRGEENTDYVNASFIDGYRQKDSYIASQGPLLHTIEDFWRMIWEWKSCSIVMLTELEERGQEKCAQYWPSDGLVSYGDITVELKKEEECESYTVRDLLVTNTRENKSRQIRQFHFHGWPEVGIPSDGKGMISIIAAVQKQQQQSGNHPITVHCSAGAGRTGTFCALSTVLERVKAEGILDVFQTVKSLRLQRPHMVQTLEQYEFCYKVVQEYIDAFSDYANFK

// known answers, use as guide
[[record]]
chemical_string = "O=C(O)C(=O)Nc1ccc2cc[nH]c2c1C(=O)O"
result = "180 µM"

[[record]]
chemical_string = "O=C(O)C(=O)Nc1sc2c(c1C(=O)O)CCO[C@H]2COC1=NS(=O)(=O)c2ccccc21"
result = "> 500 µM"


Form field: reported Ki of O=C(O)C(=O)Nc1ccsc1C(=O)O
> 2000 µM

###

Assay read-out Ki; system under study: Receptor-type tyrosine-protein phosphatase epsilon (Homo sapiens, UniProt P23469).
Sequence (P23469 whole entry): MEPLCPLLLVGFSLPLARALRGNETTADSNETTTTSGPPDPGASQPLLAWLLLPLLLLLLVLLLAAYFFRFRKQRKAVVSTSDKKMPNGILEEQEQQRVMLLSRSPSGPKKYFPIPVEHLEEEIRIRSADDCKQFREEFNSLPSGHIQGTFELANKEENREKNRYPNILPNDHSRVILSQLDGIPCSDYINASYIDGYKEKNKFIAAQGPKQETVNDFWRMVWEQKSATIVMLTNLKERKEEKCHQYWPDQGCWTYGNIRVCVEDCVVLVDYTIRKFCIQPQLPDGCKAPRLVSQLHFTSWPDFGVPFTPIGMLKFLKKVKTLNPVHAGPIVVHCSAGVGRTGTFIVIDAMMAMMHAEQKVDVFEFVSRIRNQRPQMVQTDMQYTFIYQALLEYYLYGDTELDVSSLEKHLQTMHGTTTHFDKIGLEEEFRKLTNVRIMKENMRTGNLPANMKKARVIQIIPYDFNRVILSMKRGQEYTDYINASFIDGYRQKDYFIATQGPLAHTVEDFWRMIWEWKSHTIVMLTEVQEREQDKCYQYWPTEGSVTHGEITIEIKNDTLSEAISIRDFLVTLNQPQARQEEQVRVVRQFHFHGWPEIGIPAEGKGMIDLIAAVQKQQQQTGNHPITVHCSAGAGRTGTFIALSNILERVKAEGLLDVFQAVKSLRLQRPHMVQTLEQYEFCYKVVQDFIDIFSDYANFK
API: value field is a number in µM; no unit string.

// known answers, use as guide
[[record]]
chemical_string = "O=C(O)C(=O)Nc1ccccc1C(=O)O"
tested_system = "Receptor-type tyrosine-protein phosphatase epsilon (Homo sapiens, UniProt P23469)"
result_unit = "µM"
numeric_readout = 130

[[record]]
chemical_string = "O=C(O)C(=O)Nc1ccsc1C(=O)O"
tested_system = "Receptor-type tyrosine-protein phosphatase epsilon (Homo sapiens, UniProt P23469)"
result_unit = "µM"
numeric_readout = 360

[[record]]
chemical_string = "O=C(O)C(=O)Nc1sc2c(c1C(=O)O)CCNC2"
tested_system = "Receptor-type tyrosine-protein phosphatase epsilon (Homo sapiens, UniProt P23469)"
result_unit = "µM"
numeric_readout = 1100

[[record]]
chemical_string = "O=C(O)C(=O)Nc1ccc2cc[nH]c2c1C(=O)O"
tested_system = "Receptor-type tyrosine-protein phosphatase epsilon (Homo sapiens, UniProt P23469)"
result_unit = "µM"
numeric_readout = 33

[[record]]
chemical_string = "O=C(O)C(=O)Nc1ccc(I)cc1C(=O)O"
tested_system = "Receptor-type tyrosine-protein phosphatase epsilon (Homo sapiens, UniProt P23469)"
result_unit = "µM"
numeric_readout = 33


Please look at the following molecule next.
Form field: reported Ki of O=C(O)C(=O)Nc1sccc1C(=O)O
740
